method-summary: NCI Yeast Anticancer Drug Screen. Data for the bub3 strain (AID 167)
conditions: S. cerevisiae bub3 mutant strain, at 50.0 µM
About 79,000 compounds went through this panel and 15% of them were active in at least one assay; those are over-represented in the sample as a whole. Activity calls are given as the source filed them. Cut-off read from the data, not from the text of the source: active = growth inhibition above about 70%; inactive = the rest.
Your reply should match one of these outcome classes. label 1 = active, label 0 = inactive

Worked examples, 3 molecules total:
Lookup: Recorded test outcome, item CC1(CO)CCCC2(C)C3=C(CCCC3)CCC12 (stereo not given)
Found: label 0

Lookup: Recorded test outcome, item `Cc1ccc(N2C(=O)C(Cl)=C(Cl)C2=O)cc1`
Found: label 1

Lookup: Recorded test outcome, item `OCCCCCCCCCl`
Found: label 0

New cases:
Lookup: Recorded test outcome, item `CC(=O)Nc1ccc(-c2csc(Nc3ccnc4cc(Cl)ccc34)n2)cc1`
Found: label 0

Lookup: Recorded test outcome, item `Oc1ccc(N=Nc2ccccc2)c(O)c1.Oc1ccc(N=Nc2ccccc2)c(O)c1.[Cu]`
Found: label 1

Lookup: Recorded test outcome, item `Cc1ccc2cc3ccccc3c(-c3ccccc3)c2c1`
Found: label 0

Lookup: Recorded test outcome, item `COP(=O)(OC)/C(=C/c1cn(C(c2ccccc2)(c2ccccc2)c2ccccc2)cn1)NC=O`
Found: label 0

Lookup: Recorded test outcome, item `O=C(O)CCCCCCC(=O)CCl`
Found: label 0

Lookup: Recorded test outcome, item `O=c1c2cc3ccccc3cc2c(=O)n2n1CC=CC2`
Found: label 0

Lookup: Recorded test outcome, item OC(CCN1CCCCC1)(Cc1ccccc1)c1cccc(Cl)c1 (stereo not given)
Found: label 0

====

method-summary: NCI Yeast Anticancer Drug Screen. Data for the sgs1 mgt1 strain (AID 161);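 note: 0% = growth of cultures given vehicle only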
conditions: S. cerevisiae sgs1 mgt1 strain, at 50.0 µM, stronger effect = higher value
Compounds without any hit were thinned out: in the full panel of roughly 79,000, 15% have a hit.
Measured growth inhibition by item
# value in %; strip the unit string

Lookup: State its growth inhibition: `CCn1c2ccccc2c(=O)c2c(OC)ccc(OC)c21`
Found: 81.5

New cases:
Lookup: State its growth inhibition: COc1ccc(C(C)c2cc3c(cc2OC/C(C)=N/NC(N)=O)OCO3)cc1 (stereo not drawn)
Found: 82

Lookup: State its growth inhibition: `Cc1ccc(NNC2=NC(=S)NC(=O)C2)cc1`
Found: 80.6

====

method-summary: NCI Yeast Anticancer Drug Screen. Data for the cln2 rad14 strain (AID 165);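 note: 0% = growth equal to vehicle treated cultures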
conditions: S. cerevisiae cln2 rad14 strain, at 50.0 µM
Compounds without any hit were thinned out: in the full panel of roughly 79,000, 15% have a hit. The source made the active and inactive calls. No stated cut-off is given here; in the data, active means growth inhibition above about 70%; inactive means the rest.
Your reply should match one of these outcome classes. active, inactive

Worked examples, 2 molecules total:
Lookup: Recorded test outcome, item `c1ccc2c(CCc3ccncc3)c[nH]c2c1`
Found: inactive

Lookup: Recorded test outcome, item `O=C1C=CC(=O)c2cc(Sc3ccccc3)c(=O)ccc21`
Found: inactive

New cases:
Lookup: Recorded test outcome, item Cc1ccc(C2CC(c3cccc([N+](=O)[O-])c3)=Nc3ccccc3S2)cc1 (configuration not stated)
Found: inactive

Lookup: Recorded test outcome, item `O=C(CSc1nnc(-c2ccc(N=Cc3ccc(Cl)cc3)cc2)o1)Nc1ccccc1Cl`
Found: inactive

Lookup: Recorded test outcome, item N#Cc1c(-c2ccc(Cl)cc2)c2c(n(C3OC(CO)C(O)C(O)C3O)c1=S)CCCC2 (configuration not stated)
Found: inactive

Lookup: Recorded test outcome, item O=C1c2sccc2-c2cccc3cccc1c23 (tested in a mixture with another compound)
Found: active

Lookup: Recorded test outcome, item `Oc1c(N2CCOCC2)cc(-c2cc(N3CCOCC3)c(O)c3ccccc23)c2ccccc12`
Found: inactive

Lookup: Recorded test outcome, item CCOC(=O)C1CSC(c2c(CO)cnc(C)c2O)N1 (configuration not stated)
Found: inactive

Lookup: Recorded test outcome, item `BrCc1ccc2ccc3ccc(CBr)nc3c2n1`
Found: inactive

Lookup: Recorded test outcome, item Nc1nccc2c1ncn2C1C=C(CO)C(O)C1O (configuration not stated)
Found: inactive

Lookup: Recorded test outcome, item `O=C(O)CCCCCCCCCC[S+](CCO)CCO`
Found: inactive

Lookup: Recorded test outcome, item `CC(C)OC(=O)CCCCCC1CCCCC1`
Found: inactive

====

Measured growth inhibition by item
method-summary: NCI Yeast Anticancer Drug Screen. Data for the cln2 rad14 strain (AID 165);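 note: 0% = growth equal to vehicle treated cultures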
conditions: S. cerevisiae cln2 rad14 strain, at 5.0 µM (retest, dose inferred, filed as 0.5), stronger effect = higher value
The panel holds about 79,000 compounds, 15% with a hit somewhere; the sample as a whole holds those more often.
# value in %; strip the unit string

Some molecules with recorded growth inhibition:
Lookup: State its growth inhibition: `Nc1cc(F)cc(F)c1[N+](=O)[O-]`
Found: -1

Lookup: State its growth inhibition: `CC(C)NC(=O)OCc1c2c(n(C)c1COC(=O)NC(C)C)-c1ccccc1CC2`
Found: -5

Lookup: State its growth inhibition: C=CCCCCO/N=C/c1c2c(O)c3c(O)c(C)c4c(c3c1O)C(=O)C(C)(O/C=C/C(OC)C(C)C(OC(C)=O)C(C)C(O)C(C)C(O)C(C)/C=C/C=C(\C)C(=O)N2)O4 (centres undefined)
Found: 67

New cases:
Lookup: State its growth inhibition: `NNc1c(Cl)cc(Cl)cc1Cl`
Found: 21

====

method-summary: NCI Yeast Anticancer Drug Screen. Data for the mec2-1 strain (AID 157)
conditions: S. cerevisiae mec2-1 strain, at 50.0 µM (retest, dose inferred, filed as 5.0), stronger effect = higher value
The panel holds about 79,000 compounds, 15% with a hit somewhere; the sample as a whole holds those more often.
attribute-measured: growth inhibition (%)
# value in %; strip the unit string

Some compounds with recorded growth inhibition:
Lookup: State its growth inhibition: `O=S(=O)(Nc1ccccn1)c1ccc(NCc2c3ccccc3nc3cc(Cl)ccc23)cc1`
Found: 37

Lookup: State its growth inhibition: `Cc1ccc2c(c1)CSCCO2`
Found: 100

New cases:
Lookup: State its growth inhibition: `O=C1C(=O)c2cc(Br)cc([N+](=O)[O-])c2-c2ccc(Br)cc21`
Found: 96

Lookup: State its growth inhibition: `O=C1OC(c2cccc(Cl)c2)=N/C1=C\C=C/c1ccccc1`
Found: -15

Lookup: State its growth inhibition: `O=C(CCCCCCCCCCc1ccccc1)c1c(O)cccc1O`
Found: 97

Lookup: State its growth inhibition: `Cc1ccc(C(=O)N2CCN(C(=O)c3ccc(C)cc3)c3ccccc32)cc1`
Found: -19

Lookup: State its growth inhibition: `CCCCCCCCCCCCCCSC(=NCC)NCC`
Found: 100

Lookup: State its growth inhibition: COC1OC(COC(=O)c2ccccc2)CC1F (configuration not stated)
Found: -22

Lookup: State its growth inhibition: `CC(=O)OC1=C(Br)CCc2ccccc21`
Found: 100

Lookup: State its growth inhibition: CCCCCC(CN(C)C)C(=O)/C=C/c1ccc(Cl)cc1 (configuration not stated)
Found: 100

Lookup: State its growth inhibition: `COC(=O)CCCCC(=O)N(C(C)C)C(C)C`
Found: -1

Lookup: State its growth inhibition: `NC(=O)CCSC(=S)N1CCOCC1`
Found: -2

====

method-summary: NCI Yeast Anticancer Drug Screen. Data for the mlh1 rad18 strain (AID 175)
conditions: S. cerevisiae mlh1 rad18 strain growth inhibition; at 50.0 µM (retest, dose inferred, filed as 5.0)
This is part of a sample that, as a whole, favours compounds with a hit. Of some 79,000 tested, about 15% had one in any assay. Calls of active or inactive are those of the source. Rule as the data show it: active = growth inhibition above about 70%; inactive = the rest.
Your reply should match one of these outcome classes. active, inactive

Lookup: Recorded test outcome, item CC(NCCO)c1ccc2ccccc2c1 (configuration not stated)
Found: inactive

Lookup: Recorded test outcome, item `CCCCCCCCCCCCCCCCNCCCCCCCC(=O)O`
Found: inactive

Lookup: Recorded test outcome, item COc1cc(/C=C/C2=C(C)C(=O)CC(c3cc(OC)c(OC)c(OC)c3)C2C)cc(OC)c1OC (configuration not stated)
Found: inactive

Lookup: Recorded test outcome, item `COc1cc(-c2nn3c(=O)n(-c4ccc(Cl)cc4)c(=O)nc3s2)cc(OC)c1OC`
Found: inactive

Lookup: Recorded test outcome, item CCCC/C=C1/CCC(CN(C)C)C1=O (configuration not stated)
Found: inactive

Lookup: Recorded test outcome, item `S=C(N/N=C/c1ccco1)NC12CC3CC(CC(C3)C1)C2`
Found: active

Lookup: Recorded test outcome, item `Oc1ccccc1C(Sc1nc2ccccc2s1)Sc1nc2ccccc2s1`
Found: active

====

method-summary: NCI Yeast Anticancer Drug Screen. Data for the sgs1 mgt1 strain (AID 161);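 note: 0% = growth of cultures given vehicle only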
conditions: S. cerevisiae sgs1 mgt1 strain, at 50.0 µM
Experimental: Growth inhibition of yeast strains with defined genetic alterations is measured as a screen for potential anti-cancer activity. Selected strains with alterations in DNA damage repair or cell cycle control were exposed to compounds and growth inhibition was measured relative to vehicle treated controls. The strain used in this assay is sgs1 mgt1
About 79,000 compounds went through this panel and 15% of them were active in at least one assay; those are over-represented in the sample as a whole. Active and inactive are the calls of the source. Cut-off read from the data, not from the text of the source: active = growth inhibition above about 70%; inactive = the rest.
Your reply should match one of these outcome classes. true (active), false (inactive)

Lookup: Recorded test outcome, item `O=c1nc(NC(c2ccccc2)(c2ccccc2)c2ccccc2)ccn1CCNCCn1ccc(NC(c2ccccc2)(c2ccccc2)c2ccccc2)nc1=O`
Found: true

Lookup: Recorded test outcome, item CCC[CH2][Sn]([CH2]CCC)([O]C(=O)C1CCC(=O)N1)[O]C(=O)C1CCC(=O)N1 (stereo not drawn)
Found: true

Lookup: Recorded test outcome, item `c1ccc(C2=NC(=c3ccc(=C4N=C(c5ccccc5)C(c5ccccc5)=N4)cc3)N=C2c2ccccc2)cc1`
Found: false

New cases:
Lookup: Recorded test outcome, item `CCCCCCCCCc1cc(O)c(O)cc1CCCCCCCCC`
Found: false

Lookup: Recorded test outcome, item `CN(C)/C=C(\C(=O)c1ccccc1)n1nc(-c2ccccc2)cc1-c1ccccc1`
Found: true

Lookup: Recorded test outcome, item `Cc1ccc(O)c(Cc2ccc(Cl)cc2)c1`
Found: false

Lookup: Recorded test outcome, item COc1ccc(C2Cc3cc(OC)ccc3C2=O)cc1 (stereo not drawn)
Found: false

Lookup: Recorded test outcome, item `CN(C)CC(=O)OCC[N+](C)(C)C`
Found: false

Lookup: Recorded test outcome, item CNC(=O)N(C1=NCC(C)S1)c1ccc(C)c(C)c1 (stereo not drawn)
Found: true

Lookup: Recorded test outcome, item `Cc1cc(C)nc(CCSS(=O)(=O)O)c1`
Found: false

Lookup: Recorded test outcome, item `CCCCCCCCCCCN1C(=O)c2ccccc2S1(=O)=O`
Found: false

Lookup: Recorded test outcome, item `COc1cc(C2=NCCO2)cc(OC)c1OC`
Found: false

Lookup: Recorded test outcome, item `C=CCSc1nc2ccc(N3C(=O)C=CC3=O)cc2s1`
Found: true

Lookup: Recorded test outcome, item `CCC[CH2][Sn]([CH2]CCC)([O]C(=O)Cc1ccc(F)cc1)[O]C(=O)Cc1ccc(F)cc1`
Found: true

Lookup: Recorded test outcome, item O=C(Cc1ccccc1)NC(C(=O)c1ccccc1)c1ccccc1 (stereo not drawn)
Found: true

Lookup: Recorded test outcome, item CC(NNC(=S)N1CCCC1)c1ccccn1 (stereo not drawn)
Found: true

Lookup: Recorded test outcome, item Cc1ccc(S(=O)(=O)N/N=C2/CCC3(O)CC2(C)CCC2[C@H]3CC2(C)C)cc1 (stereo partly drawn)
Found: true

Lookup: Recorded test outcome, item `BrCc1ccc2ccc3ccc(CBr)nc3c2n1`
Found: false

Lookup: Recorded test outcome, item `Cc1ccc(CN2CC(=O)N3Cc4ccccc4CN3C(=O)C2)cc1`
Found: false

Lookup: Recorded test outcome, item `Oc1ccccc1N=CC1CCCCC1`
Found: false

Lookup: Recorded test outcome, item `CCOC(CN(C)C(=O)Nc1ccc(Cl)c(Cl)c1)OCC`
Found: false

Lookup: Recorded test outcome, item `Cc1ccc2sc(=S)sc2c1`
Found: false
